pKi: recorded values
- Measured On: PtGSTU20 (Populus trichocarpa, UniProt D2X9R3)
- Sequence (D2X9R3 entry or part of it): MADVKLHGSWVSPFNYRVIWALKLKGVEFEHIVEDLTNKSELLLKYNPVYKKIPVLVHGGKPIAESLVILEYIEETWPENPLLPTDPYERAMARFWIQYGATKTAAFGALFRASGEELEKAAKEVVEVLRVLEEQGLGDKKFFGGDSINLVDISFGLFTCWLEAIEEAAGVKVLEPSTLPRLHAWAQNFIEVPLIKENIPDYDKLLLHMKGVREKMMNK
- Protocol Text: Competition (inhibition) assay of GSH-conjugation with PITC as substrate
- Format: biochemical
- Details: read-out: K i
As a rule, pKi stands for the negative log10 of the concentration, concentration in M.

structure_smiles_string=O=c1c(O)c(-c2ccccc2)oc2cc(O)cc(O)c12 measured_quantity=pKi recorded_number=4.36

Note: attention shifts to another entry.
pKi reported for this compound `O=C1C[C@@H](c2ccccc2)Oc2cc(O)cc(O)c21` : 4.21

----------
- Measured On: PtGSTU19 (Populus trichocarpa, UniProt B9HKX9)
- Sequence (B9HKX9 entry or part of it): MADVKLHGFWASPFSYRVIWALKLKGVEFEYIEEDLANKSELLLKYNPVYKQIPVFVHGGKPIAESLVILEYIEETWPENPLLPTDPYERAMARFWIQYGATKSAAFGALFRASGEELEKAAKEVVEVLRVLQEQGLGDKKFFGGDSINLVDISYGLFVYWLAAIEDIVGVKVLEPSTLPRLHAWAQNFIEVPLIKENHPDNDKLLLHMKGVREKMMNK
- Protocol Text: GSH-conjugation activity toward model substrates
- Details: PtGSTU19, 25°C, fixed 1 mM GSH (0.7 mM with HNE), mean ± S.D., n = 3
Measured Quantity: k cat (s⁻¹)
State the answer as a number, implicitly in s⁻¹.

compound="S=C=NCc1ccccc1 [BITC, benzyl-isothiocyanate]" recorded_number=7.0
compound="O=[N+]([O-])c1ccc(Cl)c([N+](=O)[O-])c1 [CDNB]" recorded_number=28.8
compound="CCCC(=O)Oc1ccc([N+](=O)[O-])cc1 [PNP-butyrate, 4-nitrophenyl-butyrate]" recorded_number=0.040

k cat reported for this compound S=C=NCCc1ccccc1 [PITC, phenethyl-isothiocyanate] : 3.8
